FYI, the data here is from patent US9340577.

Recorded log10 of IC50 values for a group of binders are listed next.
- Study System: T1, H-2Db (mouse)
- T1 chain 1: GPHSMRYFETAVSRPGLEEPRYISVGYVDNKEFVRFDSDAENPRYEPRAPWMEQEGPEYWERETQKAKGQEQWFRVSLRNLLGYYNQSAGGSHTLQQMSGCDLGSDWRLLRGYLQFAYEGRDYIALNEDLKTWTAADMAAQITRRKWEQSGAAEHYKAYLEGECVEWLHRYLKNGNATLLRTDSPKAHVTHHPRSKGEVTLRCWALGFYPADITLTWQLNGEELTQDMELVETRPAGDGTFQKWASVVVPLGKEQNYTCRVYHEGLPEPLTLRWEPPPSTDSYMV
- T1 chain 2: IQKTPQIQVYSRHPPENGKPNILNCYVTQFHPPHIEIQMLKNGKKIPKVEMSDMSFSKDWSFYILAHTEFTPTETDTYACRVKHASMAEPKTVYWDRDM
- Assay Overview: competition
- Recorded Conditions: modification not given
Value Kind: log10 of IC50 (log10 of the value in nM)

# Binder, log10 of IC50
rows = [
    ("SQVMNLHNL [F100.04]", 0.36),
    ("SGVENPGGYCL [928.07]", 1.78),
    ("RGPGRAFVTI [1087.01]", 4.34),
    ("SSMHNALHI [16.0029]", 0.88),
    ("KQYLNLYPV [HBV pol 668]", 0.53),
]
